Recorded values, source ChEMBL document CHEMBL3507680.

Experiment: Human HepG2 cell viability assay in 384 well format
Format: toxicity, cell-based
Parameters: dose 125 nL, time 70.5 hour; concentration not given beside the values
Details: HepG2 cells, read-out: Inhibition
Reported cytotoxicity at 70.5 h values for a set of compounds
Please state the value followed by its unit.

Record excerpt, results attached:
> print(dat)
                                   compound                endpoint       val
1             Cc1nccn1CCCNc1ccc(Cl)c(C#N)n1  cytotoxicity at 70.5 h    -24.8%
2  Cn1cnc2c1C(COCc1ccccc1)N(Cc1cccnc1)CC2 (stereo unspecified)  cytotoxicity at 70.5 h  -0.0183%
3  Cc1cnc(CC2COCCN(C(=O)CN3CCOCC3)C2)cn1 (stereo unspecified)  cytotoxicity at 70.5 h    -4.65%

Request the reported cytotoxicity at 70.5 h associated with O=C(CNc1ccc(OC2CCOC2)cc1)NCc1ccc(F)cc1 (stereo unspecified)
-10.9%

For `CCS(=O)(=O)N1CCC(Nc2c(Cl)cccc2C#N)CC1` , what is its reported cytotoxicity at 70.5 h?
-90.6%

Recorded cytotoxicity at 70.5 h for O=C(C1CCCC1)N1CCC(c2ncc3c(n2)CCNC3)C1 (stereo unspecified) , please?
-5.84%

Quick one: cytotoxicity at 70.5 h of COCC(c1ccccn1)N(C)C(=O)c1cc(-c2cccn2C)n[nH]1 (stereo unspecified) ?
-10.6%

Reported cytotoxicity at 70.5 h for O=C(c1ccncc1)N1CCC2(CC1)CC(Oc1cccnc1)CO2 (stereo unspecified) : what is it?
-14.5%

# lookup: cytotoxicity at 70.5 h of COCCNCC1(O)CCCN(Cc2ccc(F)c(F)c2)C1=O (stereo unspecified)
-2.23%

Recorded cytotoxicity at 70.5 h of `Cc1ncsc1CN1CC[C@H]2OCC[C@@]2(C(=O)NC2CC2)C1` , please.
-2.8%

Data request, read-out cytotoxicity at 70.5 h, for COc1ccccc1C(=O)NC(c1ccccn1)[C@H]1CC[C@H](CN)CC1 (stereo partly specified)
-4.28%
